meta.source: patent US20160194358A1

test system: Escherichia coli strain MC4100 IMP-4213, which harbors an LptD mutation; conditions: E. coli MC4100 IMP-4213; 35° C., 22 hours
*1 amine or outer side, *2 acyl side, *3 side chain or, on linkers, in order; H or OH if unused. Where a SMILES comes first, the peptide text is derived from it. [ ]: non-standard residue; d: D form. The star is where a group is joined. boroAla((+)-pinanediol) = C[C@H](N*)B1O[C@@H]2C[C@@H]3C[C@@H](C3(C)C)[C@]2(C)O1; Benzoyl(4-(4-Cl-Ph)) = O=C(c1ccc(-c2ccc(Cl)cc2)cc1)*; Ethanesulfonyl(2-NHDecyl) = CCCCCCCCCCNCCS(=O)(=O)*; X14 = O=C(c1ccc(Oc2ccc(Cl)cc2)cc1)*; X1 = C[C@H](N[*:1])C(=O)C(=O)[*:2]; X25 = C[C@H](N*)C(=O)c1ncc(C#N)o1; X26 = CCCCCCCCc1ccc(C(=O)*)c(C)c1; X22 = C[C@H](N*)C(=O)C(=O)O; Dab = NCC[C@H](N)C(=O)O; Dap = NC[C@H](N)C(=O)O
Endpoint: MIC (μg/mL) E. coli

Before answering, review these 5 worked examples.
CCCCCCCCc1ccc(C(=O)N[C@@H](CCN)C(=O)N[C@H](C(=O)N[C@@H](C)C(=O)N[C@@H](CCCCN)C(=O)N[C@@H](C)B2O[C@@H]3C[C@@H]4C[C@@H](C4(C)C)[C@]3(C)O2)[C@@H](C)O)c(C)c1 [Compound 273] (X26-[Dab]TAK-{boroAla((+)-pinanediol)})
0.13 µg/mL
CCNC(=O)C(=O)[C@H](C)NC(=O)[C@H](CCCCN)NC(=O)[C@H](C)NC(=O)[C@@H](NC(=O)[C@H](CN)NC(=O)c1ccc(-c2ccc(Cl)cc2)cc1)[C@@H](C)O [Compound 102] ({Benzoyl(4-(4-Cl-Ph))}-[Dap]TAK[X1]-NHEt)
>64 µg/mL
C[C@H](NC(=O)[C@@H](NC(=O)[C@H](CN)NC(=O)c1ccc(-c2ccc(Cl)cc2)cc1)[C@@H](C)O)C(=O)N[C@@H](CCCCN)C(=O)N[C@@H](C)C(=O)c1ncc(C#N)o1 [Compound 266] ({Benzoyl(4-(4-Cl-Ph))}-[Dap]TAK-X25)
16 µg/mL
C[C@H](NC(=O)[C@H](CCCCN)NC(=O)[C@H](C)NC(=O)[C@@H](NC(=O)[C@H](CN)NC(=O)c1ccc(Oc2ccc(Cl)cc2)cc1)[C@@H](C)O)B1O[C@@H]2C[C@@H]3C[C@@H](C3(C)C)[C@]2(C)O1 [Compound 129] (X14-[Dap]TAK-{boroAla((+)-pinanediol)})
4 µg/mL
COC(=O)CNC(=O)C(=O)[C@H](C)NC(=O)[C@H](CCCCN)NC(=O)[C@H](C)NC(=O)[C@@H](NC(=O)[C@H](CN)NC(=O)c1ccc(-c2ccc(Cl)cc2)cc1)[C@@H](C)O [Compound 111] ({Benzoyl(4-(4-Cl-Ph))}-[Dap]TAK[X1]G-OMe)
16 µg/mL

Look up MIC (μg/mL) E. coli for this compound: CCCCCCCCCCNCCS(=O)(=O)N[C@@H](CCN)C(=O)N[C@H](C(=O)N[C@@H](C)C(=O)N[C@@H](CCCCN)C(=O)N[C@@H](C)C(=O)C(=O)O)[C@@H](C)O [Compound 253] ({Ethanesulfonyl(2-NHDecyl)}-[Dab]TAK-X22)
64 µg/mL

Please report the recorded MIC (μg/mL) E. coli for C[C@H](NC(=O)[C@H](CCCCN)NC(=O)[C@H](C)NC(=O)[C@@H](NC(=O)[C@H](CCN)NC(=O)c1ccc(-c2ccc(Cl)cc2)cc1)[C@@H](C)O)B1O[C@@H]2C[C@@H]3C[C@@H](C3(C)C)[C@]2(C)O1 [Compound 112] ({Benzoyl(4-(4-Cl-Ph))}-[Dab]TAK-{boroAla((+)-pinanediol)}) .
64 µg/mL
